- Tested on: A549
- Measurement notes: Photocytotoxicity in human A549 cells assessed as metabolic activity in presence of sodium azide measured preincubated for 24 hrs followed by irradiated with 7.5 to 10 mW/cm^-2 red light for 24 hrs by MTT assay
- Type: functional, cell-based
- Test context: A549, light or radiation study
Property measured: IC50 (nM)
Give a bare numeral; the unit nM is implied.

Exercise: IC50 for C/C(=N/NC(=O)OC(C)(C)C)c1c2nc(c(-c3ccccc3)c3ccc([nH]3)c3ccc([nH]3)c(-c3ccccc3)c3ccc1[nH]3)C=C2 ?
Solution: 373

----------
- Measurement notes: Phototoxicity against human NCI-H1299 cells assessed as reduction in cell viability preincubated for 24 hrs followed by 7.5 to 10 mW/cm^-2 red light irradiation and measured after 24 hrs by MTT assay
- Format: functional, cell-based
- Test context: NCI-H1299, light or radiation study
Measured IC50 accompanies every entry in the list below.
Give a bare numeral; the unit nM is implied.

Guide cases for IC50, answers given:
1) CC(C)(C)OC(=O)N/N=C(\c1ccccc1)c1c2nc(c(-c3ccc([N+](=O)[O-])cc3)c3ccc([nH]3)c3ccc([nH]3)c(-c3ccc([N+](=O)[O-])cc3)c3ccc1[nH]3)C=C2 2360
2) C/C(=N/NC(=O)OC(C)(C)C)c1c2nc(c(-c3ccccc3)c3ccc([nH]3)c3ccc([nH]3)c(-c3ccccc3)c3ccc1[nH]3)C=C2 25

From here, focus on the item given below.
Exercise: IC50 for C/C(=N/NC(=O)OC(C)(C)C)c1c2nc(c(-c3ccc(O)cc3)c3ccc([nH]3)c3ccc([nH]3)c(-c3ccc(O)cc3)c3ccc1[nH]3)C=C2 ?
Solution: 145

----------
Measured Activity accompanies every entry in the list below.
- Measurement notes: Fluorescence property of the compound in THF assessed as fluorescence quantum yield by photoluminescence quantum yield spectrometer
- Assay type: physicochemical
Please state the value as a number alone, without comment.

Guide cases for Activity, answers given:
1. C/C(=N/NC(=O)OC(C)(C)C)c1c2nc(c(-c3ccccc3)c3ccc([nH]3)c3ccc([nH]3)c(-c3ccccc3)c3ccc1[nH]3)C=C2 0.14
2. C1=Cc2nc1c(-c1ccccc1)c1ccc([nH]1)c(-c1ccccc1)c1ccc([nH]1)c1ccc([nH]1)c2-c1ccccc1 0.12

Exercise: Activity for CC(C)(C)OC(=O)N/N=C(/c1ccccc1)c1c2nc(c(-c3ccc(O)cc3)c3ccc([nH]3)c3ccc([nH]3)c(-c3ccc(O)cc3)c3ccc1[nH]3)C=C2 ?
Solution: 0.118

----------
Measured Activity accompanies every entry in the list below.
- Measurement notes: Fluorescence property of the compound in DMSO assessed as fluorescence quantum yield by photoluminescence quantum yield spectrometer
- Format: physicochemical
Please state the value as a number alone, without comment.

Guide cases for Activity, answers given:
1) C/C(=N\NS(=O)(=O)c1ccc(C)cc1)c1c2nc(c(-c3ccc(O)cc3)c3ccc([nH]3)c3ccc([nH]3)c(-c3ccc(O)cc3)c3ccc1[nH]3)C=C2 0.212
2) C/C(=N/NC(=O)OC(C)(C)C)c1c2nc(c(-c3cccc(O)c3)c3ccc([nH]3)c3ccc([nH]3)c(-c3cccc(O)c3)c3ccc1[nH]3)C=C2 0.283
3) C/C(=N\NS(=O)(=O)c1ccc(C)cc1)c1c2nc(c(-c3ccccc3)c3ccc([nH]3)c3ccc([nH]3)c(-c3ccccc3)c3ccc1[nH]3)C=C2 0.282
4) C/C(=N\NC(=O)c1ccccc1)c1c2nc(c(-c3ccccc3)c3ccc([nH]3)c3ccc([nH]3)c(-c3ccccc3)c3ccc1[nH]3)C=C2 0.211
5) CC(C)(C)OC(=O)N/N=C(\c1ccccc1)c1c2nc(c(-c3ccccc3)c3ccc([nH]3)c3ccc([nH]3)c(-c3ccccc3)c3ccc1[nH]3)C=C2 0.298

Exercise: Activity for CC(C)(C)OC(=O)N/N=C(/c1ccccc1)c1c2nc(c(-c3ccc(O)cc3)c3ccc([nH]3)c3ccc([nH]3)c(-c3ccc(O)cc3)c3ccc1[nH]3)C=C2 ?
Solution: 0.234

Exercise: Activity for C/C(=N/NC(=O)OC(C)(C)C)c1c2nc(c(-c3ccccc3)c3ccc([nH]3)c3ccc([nH]3)c(-c3ccccc3)c3ccc1[nH]3)C=C2 ?
Solution: 0.267

Exercise: Activity for C1=Cc2nc1c(-c1ccccc1)c1ccc([nH]1)c(-c1ccccc1)c1ccc([nH]1)c1ccc([nH]1)c2-c1ccccc1 ?
Solution: 0.22

Exercise: Activity for C/C(=N/NC(=O)OC(C)(C)C)c1c2nc(c(-c3ccc(O)cc3)c3ccc([nH]3)c3ccc([nH]3)c(-c3ccc(O)cc3)c3ccc1[nH]3)C=C2 ?
Solution: 0.249

----------
Measured Activity accompanies every entry in the list below.
- Measurement notes: Fluorescence property of the compound in THF assessed as fluorescence quantum yield by photoluminescence quantum yield spectrometer
- Type: physicochemical

Guide cases for Activity, answers given:
1) C/C(=N/NC(=O)OC(C)(C)C)c1c2nc(c(-c3ccc(O)cc3)c3ccc([nH]3)c3ccc([nH]3)c(-c3ccc(O)cc3)c3ccc1[nH]3)C=C2 0.114
2) CC(C)(C)OC(=O)N/N=C(\c1ccccc1)c1c2nc(c(-c3ccccc3)c3ccc([nH]3)c3ccc([nH]3)c(-c3ccccc3)c3ccc1[nH]3)C=C2 0.159

Exercise: Activity for C/C(=N/NC(=O)OC(C)(C)C)c1c2nc(c(-c3cccc(O)c3)c3ccc([nH]3)c3ccc([nH]3)c(-c3cccc(O)c3)c3ccc1[nH]3)C=C2 ?
Solution: 0.133

----------
- Measurement notes: Fluorescence property of the compound in THF assessed as fluorescence quantum yield by photoluminescence quantum yield spectrometer
- Type: physicochemical
Property measured: Activity
Please state the value as a number alone, without comment.

Guide cases for Activity, answers given:
1. C/C(=N\NS(=O)(=O)c1ccc(C)cc1)c1c2nc(c(-c3ccc(O)cc3)c3ccc([nH]3)c3ccc([nH]3)c(-c3ccc(O)cc3)c3ccc1[nH]3)C=C2 0.073
2. C/C(=N\NS(=O)(=O)c1ccc(C)cc1)c1c2nc(c(-c3ccccc3)c3ccc([nH]3)c3ccc([nH]3)c(-c3ccccc3)c3ccc1[nH]3)C=C2 0.114

From here, focus on the item given below.
Exercise: Activity for C/C(=N\NC(=O)c1ccccc1)c1c2nc(c(-c3ccccc3)c3ccc([nH]3)c3ccc([nH]3)c(-c3ccccc3)c3ccc1[nH]3)C=C2 ?
Solution: 0.111

----------
- System: A549
- Measurement notes: Dark toxicity against human A549 cells assessed as reduction in metabolic activity at 10 uM incubated for 4 hrs by MTT assay
- Format: cell-based
- Test context: a549, 4 h
Property measured: Activity

1. C/C(=N\NS(=O)(=O)c1ccc(C)cc1)c1c2nc(c(-c3ccccc3)c3ccc([nH]3)c3ccc([nH]3)c(-c3ccccc3)c3ccc1[nH]3)C=C2 Non-toxic
2. C/C(=N\NC(=O)c1ccccc1)c1c2nc(c(-c3ccccc3)c3ccc([nH]3)c3ccc([nH]3)c(-c3ccccc3)c3ccc1[nH]3)C=C2 Non-toxic
3. C/C(=N/NC(=O)OC(C)(C)C)c1c2nc(c(-c3ccccc3)c3ccc([nH]3)c3ccc([nH]3)c(-c3ccccc3)c3ccc1[nH]3)C=C2 Non-toxic

----------
- Measurement notes: Phototoxicity against human NCI-H1299 cells assessed as reduction in cell viability preincubated for 24 hrs followed by 7.5 to 10 mW/cm^-2 red light irradiation and measured after 24 hrs by MTT assay
- Format: functional, cell-based
- Test context: NCI-H1299, light or radiation study
Measured pIC50 accompanies every entry in the list below.
Kindly note that pIC50 refers to -log10 of the concentration in mol/L and answer with the value alone.

Guide cases for pIC50, answers given:
1. C/C(=N/NC(=O)OC(C)(C)C)c1c2nc(c(-c3cccc(O)c3)c3ccc([nH]3)c3ccc([nH]3)c(-c3cccc(O)c3)c3ccc1[nH]3)C=C2 7.17
2. CC(C)(C)OC(=O)N/N=C(/c1ccccc1)c1c2nc(c(-c3ccc(O)cc3)c3ccc([nH]3)c3ccc([nH]3)c(-c3ccc(O)cc3)c3ccc1[nH]3)C=C2 7.25
3. C/C(=N\NC(=O)c1ccccc1)c1c2nc(c(-c3ccccc3)c3ccc([nH]3)c3ccc([nH]3)c(-c3ccccc3)c3ccc1[nH]3)C=C2 6.79

From here, focus on the item given below.
Exercise: pIC50 for C/C(=N/NC(=O)OC(C)(C)C)c1c2nc(c(-c3ccc([N+](=O)[O-])cc3)c3ccc([nH]3)c3ccc([nH]3)c(-c3ccc([N+](=O)[O-])cc3)c3ccc1[nH]3)C=C2 ?
Solution: 6.51

----------
- Test system: NCI-H1299
- Measurement notes: Dark toxicity against human NCI-H1299 cells assessed as reduction in metabolic activity at 10 uM incubated for 4 hrs by MTT assay
- Assay type: cell-based
- Test context: nci-h1299, 4 h
Property measured: Activity

1. C/C(=N/NC(=O)OC(C)(C)C)c1c2nc(c(-c3ccccc3)c3ccc([nH]3)c3ccc([nH]3)c(-c3ccccc3)c3ccc1[nH]3)C=C2 Non-toxic
2. CC(C)(C)OC(=O)N/N=C(\c1ccccc1)c1c2nc(c(-c3ccccc3)c3ccc([nH]3)c3ccc([nH]3)c(-c3ccccc3)c3ccc1[nH]3)C=C2 Non-toxic
3. C/C(=N\NC(=O)c1ccccc1)c1c2nc(c(-c3ccccc3)c3ccc([nH]3)c3ccc([nH]3)c(-c3ccccc3)c3ccc1[nH]3)C=C2 Non-toxic

Value source: ChEMBL document CHEMBL6087389
